Record form. Attribute: viability at 28.5 h, 10 µM. Fill in for each entry.
experiment: in vitro; settings: human, hela cells, % viability
One number for each entry, in %.

- COMPOUND: "NC[C@H]1CC[C@H](C(=O)NCCN2CCc3ccccc32)CC1"
  viability at 28.5 h, 10 µM (%): 82.7
- COMPOUND: "Clc1ccc(-n2ncc(-c3ccsc3)n2)cc1Cl"
  viability at 28.5 h, 10 µM (%): 96.3

Please give viability at 28.5 h, 10 µM for each item listed below.
1. Cc1ccc(O)c(Nc2ncnc3ccccc23)c1 [CBK266020C]
2. O=C(CN(c1cccc(Cl)c1)S(=O)(=O)c1ccccc1)Nc1cccc2cccnc12
3. Nc1ncnc2nc(-c3ccncc3)nn12

1: 93.2; 2: 87.9; 3: 102

Please give viability at 28.5 h, 10 µM for each item listed below.
1. Cc1cc(Cn2nnnc2-c2ccncc2)cc(C)c1O
2. Cc1c(F)cccc1CN(CC(C)(C)CN)C(=O)Nc1ccc(C(F)(F)F)cc1 [CBK002417C]

1. 104
2. 89.5

Please give viability at 28.5 h, 10 µM for each item listed below.
1. CN(C)CCCN1C(=O)C(O)=C(C(=O)c2ccccc2)C1c1ccccn1 (centres unmarked)
2. O=C(COc1ccc(Cl)cc1)NNC(=O)c1cccnc1
3. O=C(CCCCCN1C(=O)CCC1=O)Nc1nc[nH]n1
4. O=C(Nc1nnc(-c2ccccc2)o1)c1nc2ccccc2s1
5. CCC(CC)C(=O)N(C)c1c(C)nc2ccc(C(=O)NCCc3c[nH]c4ccccc34)cn12
6. CC(C)CCNCc1ccc(-c2cn(CC(=O)NCCc3ccccc3)nn2)cc1
7. COc1cccc(NC(=S)NCCc2ccccn2)c1
8. CC1CCc2c(C(=O)N(C)CC(=O)NC(C)(C)C)csc2C1 (centres unmarked)

1. 110
2. 97.4
3. 103
4. 91.2
5. 85.5
6. 95.9
7. 96.9
8. 97.5
